- Target entity: human PAH with the R408W mutation (Homo sapiens, UniProt P00439, R408W)
- Construct: expressed in transfected cells
- Sequence (P00439 whole entry R408W): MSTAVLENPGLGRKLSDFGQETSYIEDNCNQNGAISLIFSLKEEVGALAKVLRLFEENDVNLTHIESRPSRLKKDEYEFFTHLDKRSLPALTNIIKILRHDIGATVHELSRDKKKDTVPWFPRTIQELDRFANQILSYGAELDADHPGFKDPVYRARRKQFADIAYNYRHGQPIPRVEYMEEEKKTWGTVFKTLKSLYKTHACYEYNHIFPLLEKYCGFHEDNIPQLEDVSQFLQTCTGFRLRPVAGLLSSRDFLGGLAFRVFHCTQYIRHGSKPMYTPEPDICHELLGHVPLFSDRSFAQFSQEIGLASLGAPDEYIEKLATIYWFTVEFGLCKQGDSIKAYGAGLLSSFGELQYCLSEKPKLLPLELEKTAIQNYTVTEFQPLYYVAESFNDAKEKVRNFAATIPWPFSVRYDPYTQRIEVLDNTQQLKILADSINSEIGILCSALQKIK
- Protocol: Cell Based Phenylalanine Flux Assay
- Details: A375 cells expressing human R408W PAH; 24 hrs with compound; 13C-Tyrosine by LC-MS; average where tested multiple times; read-out: AC50
Property name: AC50

**Query** Param item = O=C(N1CCC(c2ccccc2)C1)N1CCc2[nH]cnc2C1c1nc2ccccc2s1 (stereo not drawn) ; retrieve measured AC50.
**Result** > 5 µM

**Query** Also, O=C(c1ccns1)N1CCc2[nH]cnc2[C@H]1c1nc2ccccc2[nH]1 please.
**Result** 1 to 5 µM

**Query** // same read-out, input: O=C(c1ocnc1CO)N1CC2(CC2)c2[nH]cnc2C1c1nc2ccccc2s1 (stereo not drawn)
**Result** > 5 µM

**Query** Next compound: Cc1nc(C(=O)N2CCc3[nH]cnc3C2c2nc3ccccc3s2)n(C)n1 (stereo not drawn)
**Result** 1 to 5 µM

**Query** Also need Cn1cc(-c2cccc(C(=O)N3CCc4[nH]cnc4C3c3nc4ccccc4s3)c2)cn1 (stereo not drawn) , thanks.
**Result** > 5 µM

**Query** For O=C(Cc1cnn2ccccc12)N1CCc2[nH]cnc2[C@H]1c1nc2ccccc2[nH]1 then?
**Result** 1 to 5 µM

**Query** Do the same for Cn1ncc(C(=O)N2CCc3[nH]cnc3C2c2nc3c(F)cccc3s2)c1C#N (stereo not drawn) please
**Result** 1 to 5 µM

**Query** And CN(C)Cc1nc(C(=O)N2CCc3[nH]cnc3C2c2nc3ccccc3s2)no1 (stereo not drawn) ?
**Result** 1 to 5 µM

**Query** And what about the compound CNC(C)(C)c1nc(C)c(C(=O)N2CCc3[nH]cnc3C2c2nc3c(F)cccc3s2)o1 (stereo not drawn) ?
**Result** > 5 µM

**Query** Now consider O=C(c1cnc(C2CCC(F)(F)CC2)s1)N1CCc2[nH]cnc2C1c1nc2ccccc2s1 (stereo not drawn) .
**Result** 0.5 to 1 µM

**Query** // same read-out, input: Cn1nc(C(N)=O)cc1C(=O)N1CCc2[nH]cnc2C1c1nc2c(F)cccc2s1 (stereo not drawn)
**Result** > 5 µM

**Query** Param item: O=C(Cc1cnn2ccccc12)N1CCc2[nH]cnc2C1c1nc2ccccc2s1 (stereo not drawn)
**Result** > 5 µM

**Query** Please give the result for Cc1ncc(CC(=O)N2CCc3[nH]cnc3C2c2nc3ccccc3s2)o1 (stereo not drawn) too.
**Result** 1 to 5 µM

**Query** And for O=C(c1cnc[nH]1)N1CCc2[nH]cnc2C1c1nc2ccccc2[nH]1 (stereo not drawn) ?
**Result** > 5 µM

**Query** Note, next up: Cc1nc(CCCN(C)C)oc1C(=O)N1CCc2[nH]cnc2C1c1nc2ccccc2s1 (stereo not drawn)
**Result** 1 to 5 µM

**Query** Also need O=C(c1cncs1)N1CCc2[nH]cnc2C1c1nc2ccc(Cl)cc2[nH]1 (stereo not drawn) , thanks.
**Result** > 5 µM

**Query** What about this compound? O=C(c1cnc(COc2ccccc2)s1)N1CCc2[nH]cnc2C1c1nc2ccccc2s1 (stereo not drawn)
**Result** 1 to 5 µM

**Query** Entry CC(C)(O)c1ncc(C(=O)N2CCc3[nH]cnc3[C@H]2c2nc3ccccc3[nH]2)o1 please
**Result** > 5 µM

**Query** Ok, now O=C(Cn1cncn1)N1CCc2[nH]cnc2[C@H]1c1nc2ccccc2[nH]1
**Result** > 5 µM

**Query** Cool, now O=C(c1nc2ccccc2s1)N1CCc2[nH]cnc2C1c1nc2c(F)cccc2s1 (stereo not drawn)
**Result** > 5 µM

**Query** Now the compound CC(C)(O)c1cc(C(=O)N2CCc3[nH]cnc3C2c2nc3ccccc3s2)no1 (stereo not drawn)
**Result** > 5 µM

**Query** Same question, O=C(C1CN(CC(F)(F)F)C1)N1CCc2[nH]cnc2C1c1nc2c(F)cccc2s1 (stereo not drawn) this time
**Result** 1 to 5 µM

**Query** Subsequent entry: Cc1ccn2ncc(C(=O)N3CCc4[nH]cnc4[C@H]3c3nc4ccccc4[nH]3)c2c1
**Result** 1 to 5 µM

**Query** Please answer likewise for Cc1nnc(C(=O)N2CCc3[nH]cnc3C2c2nc3ccccc3[nH]2)s1 (stereo not drawn)
**Result** 1 to 5 µM

**Query** Next compound: O=C(c1cnn2cc(F)ccc12)N1CCc2[nH]cnc2C1c1nc2ccc(F)cc2s1 (stereo not drawn)
**Result** > 5 µM

**Query** Again, but for COc1cccc(CCC(=O)N2CCc3[nH]cnc3C2c2nc3ccccc3[nH]2)c1 (stereo not drawn)
**Result** 1 to 5 µM

**Query** Further, for Cc1nnc(C(=O)N2CCc3[nH]cnc3C2c2nc3ccccc3s2)o1 (stereo not drawn) ?
**Result** 1 to 5 µM

**Query** Repeat with O=C(Cc1nccs1)N1CCc2[nH]cnc2C1c1nc2cccc(F)c2s1 (stereo not drawn)
**Result** 1 to 5 µM

**Query** Same question for O=C(CCCc1nccs1)N1CCc2[nH]cnc2[C@H]1c1nc2ccccc2[nH]1 please.
**Result** 1 to 5 µM

**Query** And the next one, Cc1ncc(C(=O)N2CCc3[nH]cnc3[C@H]2c2nc3c(F)cccc3s2)o1 (single isomer, unassigned) ?
**Result** 1 to 5 µM

**Query** And what about the compound c1ccc2[nH]c(C3c4nc[nH]c4CCN3CCCc3nccs3)nc2c1 (stereo not drawn) ?
**Result** 1 to 5 µM

**Query** Next compound: O=C(c1ncco1)N1CCc2[nH]cnc2C1c1nc2cc(F)ccc2s1 (stereo not drawn)
**Result** > 5 µM

**Query** Another compound: O=C(Cc1cscn1)N1CCc2[nH]cnc2[C@H]1c1nc2ccccc2s1 (single isomer, unassigned)
**Result** 1 to 5 µM

**Query** Ok, now O=C(Cc1nc(C(F)(F)F)cs1)N1CCc2[nH]cnc2C1c1nc2ccc(Br)cc2[nH]1 (stereo not drawn)
**Result** 1 to 5 µM

**Query** Likewise for CC1CN(C(=O)c2cnco2)C(c2nc3c(F)cccc3s2)c2nc[nH]c21 (stereo not drawn) ?
**Result** 1 to 5 µM

**Query** Again, but for Cc1ncsc1C(=O)N1CCc2[nH]cnc2C1c1nc2ccccc2s1 (stereo not drawn)
**Result** 1 to 5 µM

**Query** Can you check O=C(Cc1nc(C(F)(F)F)cs1)N1CCc2[nH]cnc2C1c1nc2ccc(F)cc2[nH]1 (stereo not drawn) next?
**Result** 1 to 5 µM

**Query** Try O=C(c1ccon1)N1CCc2[nH]cnc2C1c1nc2ccc(F)cc2[nH]1 (stereo not drawn) next.
**Result** > 5 µM

**Query** Now try O=C(C1CN(CC(F)(F)F)C1)N1CCc2[nH]cnc2[C@H]1c1nc2ccccc2s1 (single isomer, unassigned) .
**Result** 1 to 5 µM
